Emax reference
- Tgt: APOL1 G1 (Homo sapiens, UniProt O14791, I384M/S342G)
- Protocol summary: Trypanosoma brucei brucei Lysis Assay Using APOL1 Recombinant Protein (AlamarBlue viability readout)
- Type: cell-based
- Run parameters: Trypanosome Assay; read-out: Trypanosome Assay Max Activity (%)
# number only, unit % dropped from output

Just so you know, measured Emax for C[C@H]1C[C@@]2(C[C@@H](c3cccc4cn[nH]c34)N1)OCCc1cc(Cl)sc12 (racemic) came out at 54.5

Record C[C@H]1C[C@@]2(C[C@@H](c3cnc(NC(C)(C)CO)nc3)N1)OCCc1cc(Cl)sc12 (racemic) . Reported Emax: 106

Entry Cn1cc(C2CC3(CC(C4CCC4)N2)OCCc2cc(Cl)sc23)nn1 (stereo not drawn) , Emax reported as 87.5

Others:
Emax recorded for this compound, C[C@H]1C[C@@]2(C[C@@H](c3cn(CC(N)=O)nn3)N1)OCCc1cc(Cl)sc12 (racemic) , is 111

The compound listed as C[C@H]1C[C@@]2(C[C@@H](c3ccc(O)c(F)c3)N1)OCCc1cc(Cl)sc12 (stereo in doubt) has a reported Emax of 102

So, C[C@H]1CC2(C[C@@H](c3cn(C)nn3)N1)OCC(C)(C)c1sc(Cl)cc12 (stereo in doubt) ? Its Emax was 101

* * *

Recorded Emax by entry
- Tgt: APOL1 G1 (Homo sapiens, UniProt O14791, I384M/S342G)
- Protocol summary: Trypanosoma brucei brucei Lysis Assay Using APOL1 Recombinant Protein (AlamarBlue viability readout)
- Format: cell-based
- Run parameters: Trypanosome Assay; read-out: Trypanosome Assay Max Activity (%)
Answer format: value, then unit.

Reported Emax for C[C@H]1C[C@@]2(C[C@@H](c3ccc4c(c3)n(C)c(=O)n4C)N1)OCCc1cc(Cl)sc12 (racemic) [Compound 32] was 116%

Lookup result for C[C@H]1C[C@@]2(C[C@@H](c3cn(C)nn3)N1)OCCc1cc(Cl)sc12 [Compound 1] ; measured Emax: 124%

The recorded Emax for CC(C)Cc1cc2c(s1)C1(C[C@@H](C)N[C@@H](C)C1)OCC2 (single isomer, unassigned) [Compound 201] is 76.7%

Record CC1CC2(CC(C3CC3)N1)OCCc1cc(Cl)sc12 (mixture of isomers) [Compound 211] . Reported Emax: 113%

Lab note: measured Emax of Cc1nc([C@@H]2C[C@]3(C[C@H](C)N2)OCCc2cc(Cl)sc23)oc1C (racemic) [Compound 144] was 102%

Continuing:
response.value for Cc1nccnc1[C@@H]1C[C@]2(C[C@H](C)N1)OCCc1cc(Cl)sc12 (racemic) [Compound 164] (field: Emax) = 85%

Sure, the documented Emax for COC(=O)[C@@H]1C[C@]2(C[C@H](C)N1)OCCc1cc(Cl)sc12 [Compound 209] is 100%

# compound CC1CC2(CC(C3CCC3)N1)OCCc1cc(Cl)sc12 (mixture of isomers) [Compound 218] ; its Emax = 111%

* * *

Recorded Multi-Tox Assay Max Activity (%) for the following molecules
- Tgt: APOL1 (Homo sapiens, UniProt O14791)
- Sequence (O14791 1-398 S342G/I384M): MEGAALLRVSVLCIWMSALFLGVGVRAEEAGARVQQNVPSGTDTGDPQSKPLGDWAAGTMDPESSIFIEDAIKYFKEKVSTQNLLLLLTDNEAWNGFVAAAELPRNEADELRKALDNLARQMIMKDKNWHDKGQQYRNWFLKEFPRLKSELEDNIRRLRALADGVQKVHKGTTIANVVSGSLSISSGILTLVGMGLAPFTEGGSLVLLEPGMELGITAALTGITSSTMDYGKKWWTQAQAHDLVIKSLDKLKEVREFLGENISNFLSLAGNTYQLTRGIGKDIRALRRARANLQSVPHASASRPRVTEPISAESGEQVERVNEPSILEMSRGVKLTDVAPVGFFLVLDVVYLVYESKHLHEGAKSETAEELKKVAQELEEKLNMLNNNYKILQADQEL
- Protocol summary: Multi-Tox Assay (MultiTox-Fluor Multiplex Cytotoxicity Assay in tet-inducible APOL1 T-REx-HEK293 cells; Table 46 does not say which APOL1 variant G0/G1/G2)
- Type: cell-based
- Run parameters: APOL1 variant not given
Give the number; % is assumed, so skip it.

The examples below pair each entry with its known result.
The value of Multi-Tox Assay Max Activity (%) recorded for C[C@H]1C[C@@]2(C[C@@H](c3cnn4ccccc34)N1)OCCc1cc(Cl)sc12 (racemic) [Compound 117] when tested on APOL1 (Homo sapiens, UniProt O14791) reads 99.0

Form field, Multi-Tox Assay Max Activity (%) with APOL1 (Homo sapiens, UniProt O14791), item C[C@H]1C[C@@]2(C[C@@H](c3cn(C)c(=O)n(C)c3=O)N1)OCCc1cc(Cl)sc12 (racemic) [Compound 124] : 99.3

Record C[C@@H](CO)CCn1cc([C@@H]2CC3(C[C@H](C)N2)OCC(F)(F)c2cc(Cl)sc23)nn1 (stereo in doubt) [Compound 338] / APOL1 (Homo sapiens, UniProt O14791), Multi-Tox Assay Max Activity (%) recorded as 99.0

Log: APOL1 (Homo sapiens, UniProt O14791), molecule C[C@H]1C[C@@]2(C[C@@H](c3cn(CC(O)c4ccccc4)nn3)N1)OC[C@@H](O)c1cc(Cl)sc12 (stereo partly shown) [Compound 281] , Multi-Tox Assay Max Activity (%) = 99.0

Hey, APOL1 (Homo sapiens, UniProt O14791) data for C[C@H]1C[C@@]2(C[C@@H](c3cnn(CCO)c3)N1)OCCc1cc(Cl)sc12 (racemic) [Compound 56] : Multi-Tox Assay Max Activity (%) came out at 99.8

Sample C[C@H]1C[C@@]2(C[C@@H](c3cn(Cc4cnc5cnccn45)nn3)N1)OCC(F)(F)c1cc(Cl)sc12 [Compound 358] , system: APOL1 (Homo sapiens, UniProt O14791). Its Multi-Tox Assay Max Activity (%) is 98.0

// next item, Multi-Tox Assay Max Activity (%) requested
Assay APOL1 (Homo sapiens, UniProt O14791), sample CCc1cc2c(s1)C(C)COC21C[C@@H](c2cn(C)nn2)N[C@@H](C)C1 (stereo in doubt) [Compound 11] , Multi-Tox Assay Max Activity (%) read: 99.3
